Biological target: T1, CRBN, Q96SW2;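 also: pooled lentiviral library of zinc finger degron-EGFP fusions in mCherry-positive Jurkat cells, FACS-sorted after compound exposure, with degron abundance counted by next-generation sequencing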
T1 chain: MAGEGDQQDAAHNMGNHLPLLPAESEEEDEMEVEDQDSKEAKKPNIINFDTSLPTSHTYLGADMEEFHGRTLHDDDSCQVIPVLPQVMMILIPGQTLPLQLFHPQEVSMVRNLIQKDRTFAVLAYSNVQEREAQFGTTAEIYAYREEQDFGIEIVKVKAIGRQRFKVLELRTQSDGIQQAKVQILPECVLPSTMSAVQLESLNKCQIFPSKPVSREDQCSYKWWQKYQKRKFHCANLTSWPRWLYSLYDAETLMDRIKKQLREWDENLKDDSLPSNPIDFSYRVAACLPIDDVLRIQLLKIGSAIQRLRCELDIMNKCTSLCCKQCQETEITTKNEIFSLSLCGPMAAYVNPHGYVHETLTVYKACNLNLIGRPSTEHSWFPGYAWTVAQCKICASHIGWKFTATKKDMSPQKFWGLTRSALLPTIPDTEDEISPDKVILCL
Assay: log2 fold change of degron read counts, EGFP-low vs EGFP+ sorted cells (limma voom), compound-induced degradation; higher = more compound-induced degradation of the degron-EGFP fusion; degrons are variants of IKZF1/3 zinc finger 2; compound dose not given here
Conditions: Jurkat; 18 h; compound: compound 33 (diphenyl IMiD analogue)
In all, about 8,300 sequences were measured (“log2 fold change of degron read counts, EGFP-low vs EGFP+ sorted cells (limma voom), compound-induced degradation”: median about -1.1, highest 2% from about 3.2 on). For the sample, the highest values were picked, then their nearest neighbours and some sequences at random.
Using log2 fold change of degron read counts as the sorting value, the categories are label 0 (below -2), label 1 (-2 to below 1), label 2 (1 or more)

{"Item Sequence": "FWCDICGAQFTQKGNLLRHIKL [46F_47W_49D_50I_52G_53A_54Q_55F_67L_, Q9UKT9]", "Classification": "label 2"}
{"Item Sequence": "FDCNVCGAKFTQKGNLLRHIKL [46F_47D_49N_50V_52G_53A_54K_55F_67L_, Q9UKT9]", "Classification": "label 0"}
{"Item Sequence": "FECNICGAIFTQKGNLLRHIKL [46F_47E_49N_50I_52G_53A_54I_55F_67L_, Q9UKT9]", "Classification": "label 1"}
{"Item Sequence": "FWCEICGRFFTQKGNLLRHIKL [46F_47W_49E_50I_52G_53R_54F_55F_67L_, Q9UKT9]", "Classification": "label 1"}
{"Item Sequence": "FTCNVCGALFTQKGNLLRHIKL [46F_47T_49N_50V_52G_53A_54L_55F_67L_, Q9UKT9]", "Classification": "label 1"}
{"Item Sequence": "FCCNQCGRTFTQKGNLLRHIKL [46F_47C_49N_50Q_52G_53R_54T_55F_67L_, Q9UKT9]", "Classification": "label 0"}
{"Item Sequence": "FICPQCGADFTQKGNLLRHIKL [46F_47I_49P_50Q_52G_53A_54D_55F_67L_, Q9UKT9]", "Classification": "label 1"}
{"Item Sequence": "FMCPVCGASFTQKGNLLRHIKL [46F_47M_49P_50V_52G_53A_54S_55F_67L_, Q9UKT9]", "Classification": "label 2"}
{"Item Sequence": "FTCPVCGASFTQKGNLLRHIKL [46F_47T_49P_50V_52G_53A_54S_55F_67L_, Q9UKT9]", "Classification": "label 2"}
{"Item Sequence": "FSCPQCGARFTQKGNLLRHIKL [46F_47S_49P_50Q_52G_53A_54R_55F_67L_, Q9UKT9]", "Classification": "label 1"}
{"Item Sequence": "LTCNQCGFPCTQKGNLLRHIKL [46L_47T_49N_50Q_52G_53F_54P_55C_67L_, Q9UKT9]", "Classification": "label 0"}
{"Item Sequence": "FACPQCGAKFTQKGNLLRHIKL [46F_47A_49P_50Q_52G_53A_54K_55F_67L_, Q9UKT9]", "Classification": "label 0"}
{"Item Sequence": "FLCDICGAQFTQKGNLLRHIKL [46F_47L_49D_50I_52G_53A_54Q_55F_67L_, Q9UKT9]", "Classification": "label 1"}
{"Item Sequence": "FHCNQCGAKFTQKGNLLRHIKL [46F_47H_49N_50Q_52G_53A_54K_55F_67L_, Q9UKT9]", "Classification": "label 0"}
{"Item Sequence": "FACPVCGASFTQKGNLLRHIKL [46F_47A_49P_50V_52G_53A_54S_55F_67L_, Q9UKT9]", "Classification": "label 2"}
{"Item Sequence": "FVCPVCGASFTQKGNLLRHIKL [46F_47V_49P_50V_52G_53A_54S_55F_67L_, Q9UKT9]", "Classification": "label 2"}
{"Item Sequence": "FACDQCGASFTQKGNLLRHIKL [46F_47A_49D_50Q_52G_53A_54S_55F_67L_, Q9UKT9]", "Classification": "label 0"}
{"Item Sequence": "LCCNQCGFECTQKGNLLRHIKL [46L_47C_49N_50Q_52G_53F_54E_55C_67L_, Q9UKT9]", "Classification": "label 0"}
{"Item Sequence": "LQCNQCGFPCTQKGNLLRHIKL [46L_47Q_49N_50Q_52G_53F_54P_55C_67L_, Q9UKT9]", "Classification": "label 0"}
{"Item Sequence": "FWCNQCGHTFTQKGNLLRHIKL [46F_47W_49N_50Q_52G_53H_54T_55F_67L_, Q9UKT9]", "Classification": "label 0"}
{"Item Sequence": "FQCPVCGASFTQKGNLLRHIKL [46F_47Q_49P_50V_52G_53A_54S_55F_67L_, Q9UKT9]", "Classification": "label 2"}
{"Item Sequence": "FGCPVCGASFTQKGNLLRHIKL [46F_47G_49P_50V_52G_53A_54S_55F_67L_, Q9UKT9]", "Classification": "label 2"}
{"Item Sequence": "LWCNQCGFLCTQKGNLLRHIKL [46L_47W_49N_50Q_52G_53F_54L_55C_67L_, Q9UKT9]", "Classification": "label 1"}
{"Item Sequence": "FSCPVCGASFTQKGNLLRHIKL [46F_47S_49P_50V_52G_53A_54S_55F_67L_, Q9UKT9]", "Classification": "label 2"}
{"Item Sequence": "FKCPVCGASFTQKGNLLRHIKL [46F_47K_49P_50V_52G_53A_54S_55F_67L_, Q9UKT9]", "Classification": "label 1"}
{"Item Sequence": "FKCDQCGACFTQKGNLLRHIKL [46F_47K_49D_50Q_52G_53A_54C_55F_67L_, Q9UKT9]", "Classification": "label 0"}
{"Item Sequence": "FDCPVCGASFTQKGNLLRHIKL [46F_47D_49P_50V_52G_53A_54S_55F_67L_, Q9UKT9]", "Classification": "label 2"}
{"Item Sequence": "FTCPICGHQFTQKGNLLRHIKL [46F_47T_49P_50I_52G_53H_54Q_55F_67L_, Q9UKT9]", "Classification": "label 2"}
